- Test system: CAMK4
- Experimental setup: concentration: 1 μM, replicates: in singlicate; n = 1;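 note: KINOMEscan kinase panel screen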

Compound	Uom	%Inh
CCOc1nccc(-c2c(-c3ccc(F)cc3)ncn2C2CCNCC2)n1 [SB-249175]	%	11
COC(=O)Nc1nc2ccc(Oc3ccc(NC(=O)Nc4cc(C(F)(F)F)ccc4F)cc3)cc2[nH]1.Cl [GW654607]	%	0
CCn1c(-c2nonc2N)nc2c(-c3ccccc3)ncc(OCCCN)c21.O=C(O)C(F)(F)F.O=C(O)C(F)(F)F [GSK260205]	%	8
COc1cccc2c(-c3ccncc3)c(-c3ccc(F)cc3)nn12 [GW468513]	%	0
Cc1cc(-c2c(-c3ccc(F)cc3)ncn2CCCN2CCOCC2)nc(N)n1 [SB-222517]	%	13
CN(c1ccc(NC(=O)N2CCN(CCCN3CCOCC3)CC2)cc1)c1ccnc(Nc2ccc(CS(C)(=O)=O)cc2)n1.Cl [GW830899]	%	0
O=C1NC(=O)C(c2ccccc2Cl)=C1Nc1cccc(Cl)c1 [SB-342409]	%	47
CCn1cnc2c(NCc3ccccc3)ncnc21 [SKF-96418]	%	7

* * *

- System: MRCKA
- Experimental setup: concentration: 1 μM, replicates: in singlicate; n = 1
Reported metric: %Inh (%)

Structure notation	Recorded value
N#CC1(c2cccc(C(=O)Nc3cccc(Oc4ccc5nc(NC(=O)C6CC6)sc5n4)c3)c2)CC1	0
COc1cc(Nc2ccnc3cc(-c4ccncc4)ccc23)cc(OC)c1OC.Cl	0
O=C(Nc1n[nH]c2nc(-c3cccc(O)c3)ccc12)C1CC1	0
COc1cc(Nc2nccc(N3CCC(NS(=O)(=O)c4ccc(NC(C)=O)cc4)CC3)n2)cc(OC)c1OC	92.3

* * *

Below, each entry is listed alongside its reported %Inh.
- System: AKT1
- Experimental setup: concentration: 1 μM, replicates: in singlicate; n = 1

Compound	%Inh, %
O=C(Nc1n[nH]c2nc(-c3cccc(O)c3)ccc12)C1CC1	0
Cl.Cl.NC(CNC(=O)c1cc(Br)c(-c2ccnc3[nH]ccc23)s1)c1ccccc1 (stereo not drawn)	66
COc1cccc2c(-c3ccncc3)c(-c3ccc(F)cc3)nn12	0
COc1cc(Nc2ccnc3cc(-c4ccncc4)ccc23)cc(OC)c1OC.Cl	0
Cl.O=C(Nc1ccc(Oc2ccc3[nH]c(NC(=O)c4ccco4)nc3c2)cc1)Nc1cc(C(F)(F)F)ccc1F	0
Cc1nn2c(=O)cc(N3CCO[C@H](C)C3)nc2n1Cc1cccc(Cl)c1Cl	0

* * *

- Test system: FRK
- Experimental setup: concentration: 1 μM, replicates: in singlicate; n = 1
Please enter yes where %Inh is greater than or equal to 6%, and no where it is lower.

Compound	System tested	Answer label
CN(c1ccc(NC(=O)N2CCN(CCCN3CCOCC3)CC2)cc1)c1ccnc(Nc2ccc(CS(C)(=O)=O)cc2)n1.Cl	FRK	yes
COc1cc(Nc2nccc(N3CCC(NS(=O)(=O)c4ccc(NC(C)=O)cc4)CC3)n2)cc(OC)c1OC	FRK	yes
COc1cccc(NC(=O)NCCNc2ccnc(Nc3ccc(F)cc3)n2)c1	FRK	yes
Cc1nn2c(=O)cc(N3CCO[C@H](C)C3)nc2n1Cc1cccc(Cl)c1Cl	FRK	no
Fc1cc(Cl)ccc1Nc1ccnc2cc(-c3ccc(CN4CCOCC4)o3)ccc12	FRK	yes
Cl.O=C(Nc1ccc(Oc2ccc3[nH]c(NC(=O)c4ccco4)nc3c2)cc1)Nc1cc(C(F)(F)F)ccc1F	FRK	yes
O=C(Nc1n[nH]c2nc(-c3ccccc3)ccc12)C1CC1	FRK	no
O=C(O)C(F)(F)F.O=c1[nH]ccc2nc(N[C@@H]3CCNC3)nc(Nc3ccc4c(c3)S(=O)(=O)CC4)c12	FRK	yes
COc1cccc(C2=C(Nc3cccc(O)c3)C(=O)NC2=O)c1	FRK	yes
Cc1cc(-c2ccnc(Nc3cccc(C#N)c3)n2)cc(C)c1O	FRK	yes
Cl.Cl.NC(CNC(=O)c1cc(Br)c(-c2ccnc3[nH]ccc23)s1)c1ccccc1 (centres unmarked)	FRK	no
Cc1cccc(Nc2nc(NCCN)ncc2C(N)=O)c1	FRK	no
Cn1cc(-c2ccc3c(c2)CCN3C(=O)Cc2cc(F)cc(C(F)(F)F)c2)c2c(N)ncnc21	FRK	yes
COc1cc(Nc2ccnc3cc(-c4ccncc4)ccc23)cc(OC)c1OC.Cl	FRK	yes
Nc1cccc(-c2ccc3c(N)n[nH]c3c2)c1	FRK	no
COC(=O)Nc1nc2ccc(Oc3ccc(CC(=O)Nc4cc(C(F)(F)F)ccc4F)cc3)cc2[nH]1	FRK	yes
